Experiment Summary: qHTS for Inhibitors of human tyrosyl-DNA phosphodiesterase 1 (TDP1): qHTS in cells in absence of CPT; note: nearly all actives have a fitted effect of over 55% in size
Experimental Conditions: DT40 Tdp1-/- hTDP1 cells, no CPT, ATP luminescence, 48 h
Among all 420,000 compounds or so, about 64,000 (15%) were called active. Not shown: some 27% with an inconclusive outcome. Calls come from the whole dose curve; as a rule, active = well fitted inhibition curve with a large enough effect; inconclusive = small, poorly fitted or top-dose-only effect; inactive = flat fitted curve, though single readings scatter. These entries were drawn from the full list.
Pick one and only one: active, inactive

Kindly provide the recorded test outcome for the following compound: CC(C)N1C(=O)N(c2ccccc2)C(C)(O)CC1(C)C (stereo unspecified)
inactive

Given `CCC(=O)N1CCc2cc(Br)cc(S(=O)(=O)CCC(=O)NCc3ccccc3OC)c21` , state the outcome it received in this test.
inactive

Write down the call the test reported for this compound. Item: `COC(=O)CSc1nccc(-c2cccs2)n1`
inactive

So what was the verdict on CC(C)C1C2=C(CC(C)(C)CC2=O)ON1c1ccccc1 (stereo unspecified) in this test?
active

Dear all, I need the recorded test outcome for `Cn1ncc([N+](=O)[O-])c1C(=O)Nc1cc(Cl)ccc1Cl` , thank you.
inactive

I would be grateful if you could indicate the recorded call for `COc1cc(N2C(=O)CSC2=S)cc(OC)c1OC` .
inactive
